- Test system: Plasmodium falciparum
- method.summary: Calibr Malaria Delayed Death Assay SOP
- Type: functional, organism-based
- Parameters: scale not given: in the data most compounds retested in dose-response had high values
- applied.conditions: concentration 4.99e-06 (unit not given; other assays of the set use mol/L)
Among all 38,000 compounds or so, about 1,200 (3.2%) showed an effect of 50% or more. The median lay at about -58%. The list comes from a sample in which strong results are over-represented; it also holds close analogues and randomly drawn compounds.
Please note: Condition met applies when Percent Effect is -30% or greater, and Condition not met applies otherwise.

Consider the worked cases shown below.
# molecule, class.label
measured = [
    ("Cn1cccc1C(=O)N1CCn2nnc(COc3cccnc3)c2C1.O=C(O)C(F)(F)F", "Condition met"),
    ("CN1CCN(S(=O)(=O)c2cccc(F)c2)c2cnccc21", "Condition met"),
    ("COc1ccc(CNC(=O)C2=NN(c3ccc(C)cc3)C(=O)CN2)cc1", "Condition met"),
    ("CN1CCCN(S(=O)(=O)c2cnn(C)c2)c2cc(Cl)ccc21", "Condition met"),
    ("CN1CCN(S(=O)(=O)c2ccc(Cl)c(Cl)c2)c2cnccc21", "Condition met"),
]

For this molecule, is measured Percent Effect -30% or higher? C[C@]1(O)CN(Cc2ncc[nH]2)CC[C@@H]1Oc1cccc(F)c1
Condition met

Query CCS(=O)(=O)N1Cc2ncn(CC3CC3)c2C(COCC2CC2)C1.O=C(O)C(F)(F)F (stereo not drawn) next
Condition not met

Query COc1cccc([C@@H]2CCN(Cc3c[nH]c(C)n3)C[C@H]2O)c1 next
Condition not met

Data provenance: ChEMBL document CHEMBL3988442
